# ASSAY_NAME: Pharmacokinetics of compound I-1 in the dog by intravenous, oral gavage and oral capsule routes
# Format: in vivo, beagle dogs
# TEST_SETTINGS: male, beagle, dog, plasma, iv, 3 mg/kg, Group 1: IV 3 mg/kg; 0.5 h; Average; read-out: Concentration at time point
# Procedure: A pharmacokinetic study was conducted to compare the bioavailability of capsule and suspension oral formulations vs. an intravenous formulations. The standard curve was prepared from 1 to 2,000 ng/mL. QC samples were prepared at 30, 30, and 750 ng/mL. […] The resulting supernatants were analyzed by LCMS. […] The I-1 100 mg capsules are manufactured as a non-sterile spray dried, granulated powder blend. […] The quantitative composition of the I-1 100 mg capsule is presented above in Table B. […]

{"SMILES_STRUCTURE": "CC(C)(O)c1nc2ccccc2cc1N", "concentration at 0.5 h": "1.66 µg/mL"}

---

# ASSAY_NAME: Phase 1 clinical trial, single ascending dose (SAD) pharmacokinetics
# Format: in vivo, human
# TEST_SETTINGS: human, in vivo, po, 700 mg, healthy volunteers; oral single dose 700 mg
MEASUREMENT_NAME: half-life (h)

{"SMILES_STRUCTURE": "CC(C)(O)c1nc2ccccc2cc1N", "UNITS_TEXT": "h", "TEST_RESULT": 7.33}

---

# ASSAY_NAME: Pharmacokinetics of compound I-1 in the dog by intravenous, oral gavage and oral capsule routes
# Type: in vivo, beagle dogs
# TEST_SETTINGS: male, beagle, dog, plasma, iv, 3 mg/kg, Intravenous - 3 mg/kg; Average

{"SMILES_STRUCTURE": "CC(C)(O)c1nc2ccccc2cc1N", "UNITS_TEXT": "min", "half-life": 109}

---

# ASSAY_NAME: Pharmacokinetics of compound I-1 in the dog by intravenous, oral gavage and oral capsule routes
# Format: in vivo, beagle dogs
# TEST_SETTINGS: male, beagle, dog, plasma, iv, 3 mg/kg, Group 1: IV 3 mg/kg; 0.25 h; Subject 1; read-out: Concentration at time point
MEASUREMENT_NAME: concentration at 0.25 h (ng/mL)

{"SMILES_STRUCTURE": "CC(C)(O)c1nc2ccccc2cc1N", "MEASUREMENT_NAME": "concentration at 0.25 h", "TEST_RESULT": 2780}

---

# ASSAY_NAME: Phase 1 clinical trial, multiple ascending dose (MAD) pharmacokinetics
# Format: in vivo, human
# TEST_SETTINGS: human, in vivo, po, 150 mg, oral 150 mg BID; Day 10; read-out: Mean t1/2 (converted)
# From the text: PK data are presented below.

{"SMILES_STRUCTURE": "CC(C)(O)c1nc2ccccc2cc1N", "half-life / h": 6.34}

---

# ASSAY_NAME: Pharmacokinetics of compound I-1 in the dog by intravenous, oral gavage and oral capsule routes
# Assay type: in vivo, beagle dogs
# TEST_SETTINGS: male, beagle, dog, plasma, po, 10 mg/kg, Group 2: PO Gavage 10 mg/kg; 1 h; Average; read-out: Concentration at time point

{"COMPOUND": "CC(C)(O)c1nc2ccccc2cc1N [I-1]", "concentration at 1 h, ng/mL": 2700}

---

# ASSAY_NAME: Pharmacokinetics of compound I-1 in the dog by intravenous, oral gavage and oral capsule routes
# Assay type: in vivo, beagle dogs
# TEST_SETTINGS: male, beagle, dog, plasma, iv, 3 mg/kg, Intravenous - 3 mg/kg; Average; read-out: Vss

{"SMILES_STRUCTURE": "CC(C)(O)c1nc2ccccc2cc1N", "Vd": "1.39 L/kg"}
